Would you mind telling me the reported pEC50 of each entry?
Tested on: MDA-MB-436 cells
Assay: Cell proliferation assay (MTS, 7 days)
Assay type: cell-based
Conditions: Homo sapiens, 168 h; MDA-MB-436 cells, 7 days, MTS; read-out: MDA-MB-436 cells EC50
pEC50: −log10 of the molar value.

// map O=C(c1ccccn1)N1CCN(C(=O)c2cc(Cn3c(=O)[nH]c(=O)c4ccccc43)ccc2F)CC1 to recorded pEC50 (system: MDA-MB-436 cells)
< 8.00

// map O=C(c1cc(Cn2c(=O)[nH]c(=O)c3ccccc32)ccc1F)N1CCC(N2CCCC2)CC1 to recorded pEC50 (system: MDA-MB-436 cells)
< 8.00

// map O=C(c1cc(Cn2c(=O)[nH]c(=O)c3ccccc32)ccc1F)N1Cc2cccnc2C1 to recorded pEC50 (system: MDA-MB-436 cells)
< 8.00

// map O=C(c1ccno1)N1CCN(C(=O)c2cc(Cn3c(=O)[nH]c(=O)c4ccccc43)ccc2F)CC1 to recorded pEC50 (system: MDA-MB-436 cells)
< 8.00

// map O=C(c1cnccn1)N1CCN(C(=O)c2cc(Cn3c(=O)[nH]c(=O)c4ccccc43)ccc2F)CC1 to recorded pEC50 (system: MDA-MB-436 cells)
< 8.00
